# procedure_summary: Plasma protein binding in Sprague-Dawley rat at 2 to 21.2 mg/kg, po
# Assay type: ADME, organism-based
# Set-up: dose 2-21.2 mg/kg, route oral
# test_settings: read-out: PPB (converted)
quantity: fraction unbound
Just the number, please, no unit after it.

I would be grateful if you could share the reported fraction unbound for `Cc1cc(Nc2ccc(C(F)(F)F)cc2)n2nc(C(C)(F)F)nc2n1` .
0.058

====

# procedure_summary: in vivo
# test_settings: Swiss outbred, mouse, po, 0.4 mg/kg
quantity: Tmax (min)
State the answer as a number, implicitly in min.

Cc1cc(Nc2ccc(S(F)(F)(F)(F)F)cc2)n2nc(C(C)(F)F)nc2n1 [DSM-265]
30

I would be grateful if you could share the reported Tmax for `Cc1cc(Nc2ccc(C(F)(F)F)cc2)n2nc(C(C)(F)F)nc2n1` .
30
